- experimental-system: PD-1/PD-L1 (Homo sapiens (Human))
- procedure-summary: PD-1/PD-L1 Homogenous Time-Resolved Fluorescence (HTRF) binding assay
- assay-setup: PD-1-Ig (20 nM final)/PD-L1-His (10 nM final) binding assay
recorded-metric: IC50 (nM)

Check out these entries, answers already filled in.
Cc1c(COc2cc(OCC(=O)N3CCS(=O)(=O)CC3)c(CN3CCCC[C@H]3C(=O)O)cc2Cl)cccc1-c1ccc2c(c1)OCCO2: 455
COC(=O)CCNS(=O)(=O)c1cncc(COc2cc(OCc3cccc(-c4ccc5c(c4)OCCO5)c3C)c(Cl)cc2CN[C@@](C)(CO)C(=O)O)c1: 4
Cc1c(COc2cc(OCCCC(F)(F)F)c(CN3CCCC[C@H]3C(=O)O)cc2Cl)cccc1-c1ccc2c(c1)OCCO2: 1.8
Cc1c(COc2cc(OCCN3CCOCC3)c(CN[C@](C)(CO)C(=O)O)cc2Cl)cccc1-c1ccc2c(c1)OCCO2: 1.8
Cc1c(COc2cc(OCC3CCOCC3)c(CN3CCCC[C@H]3C(=O)O)cc2Cl)cccc1-c1ccc2c(c1)OCCO2: 7

P: Cc1c(COc2cc(OCCN3CCOCC3)c(CNC(C)(CO)CO)cc2Cl)cccc1-c1ccc2c(c1)OCCO2
Q: Cc1c(COc2cc(OCc3cccc(-c4nc(CC(=O)O)co4)c3)c(CN[C@@](C)(CO)C(=O)O)cc2Cl)cccc1-c1ccc2c(c1)OCCO2
R: Cc1c(COc2cc(OCc3cnn(CC(=O)O)c3)c(CN[C@@](C)(CO)C(=O)O)cc2Cl)cccc1-c1ccc2c(c1)OCCO2
S: Cc1c(COc2cc(OCc3cnn(CC(=O)OC(C)(C)C)c3)c(CN[C@@](C)(CO)C(=O)O)cc2Cl)cccc1-c1ccc2c(c1)OCCO2
T: COC(=O)C1(O)CCN(CCOc2cc(OCc3cccc(-c4ccc5c(c4)OCCO5)c3C)c(Cl)cc2CNC(C)(CO)CO)CC1
// smallest IC50 at index 0, largest at the end Your answer should be the labels, listed in the requested order.
T, P, R, S, Q

A: Cc1c(COc2cc(OCC3CCCN(C)C3)c(CN[C@@H](CO)C(=O)O)cc2Cl)cccc1-c1ccc2c(c1)OCCO2 (single isomer, unassigned) [Example 2006]
B: Cc1c(COc2cc(OCC3CCOCC3)c(CN[C@](C)(CO)C(=O)O)cc2Cl)cccc1-c1ccc2c(c1)OCCO2
C: Cc1c(COc2cc(OCc3cncc(SCc4ccccc4)c3)c(CN3CCCC[C@H]3C(=O)O)cc2Cl)cccc1-c1ccc2c(c1)OCCO2
D: Cc1c(COc2cc(OCCCCN3CC[C@@H](O)C3)c(CN3CCCC[C@H]3C(=O)O)cc2Cl)cccc1-c1ccc2c(c1)OCCO2
E: Cc1c(COc2cc(OCc3cncc(SCCC(=O)O)c3)c(CN[C@@](C)(CO)C(=O)O)cc2Cl)cccc1-c1ccc2c(c1)OCCO2
// smallest IC50 at index 0, largest at the end Your answer should be the labels, listed in the requested order.
A, B, E, D, C

I: Cc1c(COc2cc(OCc3cncc(S(=O)(=O)CCC(=O)O)c3)c(CN3CCCC[C@H]3C(=O)O)cc2Cl)cccc1-c1ccc2c(c1)OCCO2
II: Cc1c(COc2cc(OCc3cncc(C(=O)N[C@@H](CO)C(=O)O)c3)c(CN3CC[C@H](O)C3)cc2Cl)cccc1-c1ccc2c(c1)OCCO2
III: Cc1c(COc2cc(OC[C@H](C)CO)c(CN3CCCC[C@H]3C(=O)O)cc2Cl)cccc1-c1ccc2c(c1)OCCO2
IV: Cc1c(COc2cc(OCCN3CCS(=O)(=O)CC3)c(CN3CCCC[C@H]3C(=O)O)cc2Cl)cccc1-c1ccc2c(c1)OCCO2
// smallest IC50 at index 0, largest at the end Your answer should be the labels, listed in the requested order.
I, II, IV, III

----------
- experimental-system: PD-1/PD-L1 (Homo sapiens (Human), UniProt Q9NZQ7)
- Sequence (Q9NZQ7 18-239): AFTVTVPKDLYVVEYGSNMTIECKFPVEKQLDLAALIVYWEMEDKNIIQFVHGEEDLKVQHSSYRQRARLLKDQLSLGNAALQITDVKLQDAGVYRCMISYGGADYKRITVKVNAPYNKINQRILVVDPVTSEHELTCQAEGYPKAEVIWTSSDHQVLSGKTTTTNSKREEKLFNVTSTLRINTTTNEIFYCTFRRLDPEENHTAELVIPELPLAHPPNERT
- procedure-summary: PD-1/PD-L1 Homogenous Time-Resolved Fluorescence (HTRF) binding assay
- assay-setup: PD-1-Ig (20 nM final)/PD-L1-His (10 nM final) binding assay
- Source text: The ability of the compounds of the invention to bind to PD-L1 was investigated using a PD-1/PD-L1 Homogenous Time-Resolved Fluorescence (HTRF) binding assay. The interaction of PD-1 and PD-L1 can be assessed using soluble, purified preparations of the extracellular domains of the two proteins. […] Homogenous Time-Resolved Fluorescence (HTRF) Assays of Binding of Soluble PD-1 to Soluble PD-L1. […]
recorded-metric: IC50 (nM)

Check out these entries, answers already filled in.
Cc1cnc(COc2cc(OCc3cccc(-c4ccc5c(c4)OCCO5)c3C)c(Cl)cc2CN[C@@](C)(CO)C(=O)O)cn1: 6.8
Cc1c(COc2cc(OCCCC(F)(F)F)c(CNC(C)(CO)CO)cc2Cl)cccc1-c1ccc2c(c1)OCCO2: 6.5
Cc1c(COc2cc(OCc3cncc(C(=O)NS(C)(=O)=O)c3)c(CN3CCCC[C@H]3C(=O)O)cc2Cl)cccc1-c1ccc2c(c1)OCCO2: 5.7

P: Cc1c(COc2cc(OCc3cncc(S(N)(=O)=O)c3)c(CN[C@@](C)(CO)C(=O)O)cc2Cl)cccc1-c1ccc2c(c1)OCCO2
Q: Cc1c(COc2cc(OCCN3CC[C@@H](O)C3)c(CNC(C)(CO)CO)cc2Cl)cccc1-c1ccc2c(c1)OCCO2
R: Cc1c(COc2cc(OCc3cnn(CC#N)c3)c(CN[C@@](C)(CO)C(=O)O)cc2Cl)cccc1-c1ccc2c(c1)OCCO2
// smallest IC50 at index 0, largest at the end Your answer should be the labels, listed in the requested order.
Q, R, P
(Q: 0.5 nM, R: 1.7 nM, P: 4.1 nM)

----------
- experimental-system: PD-1/PD-L1 (Homo sapiens (Human), UniProt Q9NZQ7)
- procedure-summary: PD-1/PD-L1 Homogenous Time-Resolved Fluorescence (HTRF) binding assay
- assay-setup: PD-1-Ig (20 nM final)/PD-L1-His (10 nM final) binding assay
recorded-metric: IC50 (nM)

I: Cc1c(COc2cc(OCC3CCCCC3)c(CN3CCCC[C@H]3C(=O)O)cc2Cl)cccc1-c1ccc2c(c1)OCCO2 [Example 1040]
II: Cc1c(COc2cc(OCCN3CCC(O)(C(=O)O)CC3)c(CNC(C)(CO)CO)cc2Cl)cccc1-c1ccc2c(c1)OCCO2 [Example 1056]
III: Cc1c(COc2cc(OCc3cncc(C(=O)N[C@@H](CCCNC(=N)N)C(=O)O)c3)c(CN3CC[C@H](O)C3)cc2Cl)cccc1-c1ccc2c(c1)OCCO2 [Example 2010]
In this exercise, place the 3 compounds in ascending sequence of their recorded IC50. Your answer should be the labels, listed in the requested order.
II, III, I

----------
- experimental-system: PD-1/PD-L1 (Homo sapiens (Human), UniProt Q9NZQ7)
- procedure-summary: PD-1/PD-L1 Homogenous Time-Resolved Fluorescence (HTRF) binding assay
- assay-setup: PD-1-Ig (20 nM final)/PD-L1-His (10 nM final) binding assay
Where a name gives a salt, the structure may show the parent alone.
recorded-metric: IC50 (nM)

Check out these entries, answers already filled in.
CCn1cc(COc2cc(OCc3cccc(-c4ccc5c(c4)OCCO5)c3C)c(Cl)cc2CN[C@H](CO)C(=O)O)cn1: 7.9
Cc1c(COc2cc(OCC3CNCCO3)c(CN3CCCC[C@H]3C(=O)O)cc2Cl)cccc1-c1ccc2c(c1)OCCO2 (stereo partly shown) [Example 2011, acetic acid salt]: 26.5
COC(=O)C1(O)CCN(CCOc2cc(OCc3cccc(-c4ccc5c(c4)OCCO5)c3C)c(Cl)cc2CN2CCCC[C@H]2C(=O)O)CC1: 1
Cc1c(COc2cc(OCCN3CCCC(O)(C(F)(F)F)C3)c(CNC(C)(CO)CO)cc2Cl)cccc1-c1ccc2c(c1)OCCO2 (stereo not shown): 2.2
Cc1c(COc2cc(OCCN3CCCCC3)c(CN3CCCC[C@H]3C(=O)O)cc2Cl)cccc1-c1ccc2c(c1)OCCO2: 0.6
Cc1c(COc2cc(OCC3CCC3)c(CN[C@](C)(CO)C(=O)O)cc2Cl)cccc1-c1ccc2c(c1)OCCO2: 11.1

a: Cc1c(COc2cc(OCc3cccc(CN)c3)c(CN3CCCC[C@H]3C(=O)O)cc2Cl)cccc1-c1ccc2c(c1)OCCO2 [Example 1017, bis-trifluoroacetic acid salt]
b: Cc1c(COc2cc(OCCCCN3CC[C@@H](O)C3)c(CNC(C)(CO)CO)cc2Cl)cccc1-c1ccc2c(c1)OCCO2
c: Cc1c(COc2cc(OCCN3CCC(O)(C(=O)O)CC3)c(CN3CCCC[C@H]3C(=O)O)cc2Cl)cccc1-c1ccc2c(c1)OCCO2
d: Cc1c(COc2cc(OCCN3CCC(O)(C(=O)O)CC3)c(CN[C@](C)(CO)C(=O)O)cc2Cl)cccc1-c1ccc2c(c1)OCCO2
Arrange these molecules by their IC50, starting with the largest number. Your answer should be the labels, listed in the requested order.
a, b, c, d

a: Cc1c(COc2cc(OC[C@@H](C)CO)c(CN3CCCC[C@H]3C(=O)O)cc2Cl)cccc1-c1ccc2c(c1)OCCO2
b: Cc1c(COc2cc(OCCN3CCOCC3)c(CN3CCCC[C@H]3C(=O)O)cc2Cl)cccc1-c1ccc2c(c1)OCCO2
c: Cc1c(COc2cc(OCCN3CCCCC3)c(CNC(C)(CO)CO)cc2Cl)cccc1-c1ccc2c(c1)OCCO2
Arrange these molecules by their IC50, starting with the largest number. Your answer should be the labels, listed in the requested order.
b, a, c
